- SYSTEM_NAME: HLA-B*08:01
- METHOD_NOTES: IEDB peptide-MHC binding, purified MHC/direct/fluorescence; filed as Kd, often an IC50 or EC50 that approximates it; bounds were set here for any values at or beyond the usual limits of such assays
- COND: source organism: Variola virus
pKd: −log10 of the molar value.
REPORTED_ENDPOINT: pKd

*Q* Request - read-out pKd | tested on HLA-B*08:01 | sequence FENDIDEIL
*A* ≤ 4.70

----------
- SYSTEM_NAME: HLA-A*02:01
- METHOD_NOTES: IEDB peptide-MHC binding, purified MHC/competitive/fluorescence; filed as Kd, often an IC50 or EC50 that approximates it; bounds were set here for any values at or beyond the usual limits of such assays
- COND: source organism: Campylobacter jejuni subsp. jejuni NCTC 11168 = ATCC 700819
pKd: −log10 of the molar value.
REPORTED_ENDPOINT: pKd

*Q* Fill in: pKd of LELAEITAE is ___
*A* ≤ 4.70
